Test system: Rattus norvegicus
experimental protocol: Anti-cold allodynia effect in Sprague-Dawley rat CCI model assessed as duration of paw withdrawal 100 mg/kg, ip after 2.5 hr
Format: functional
condition: route intraperitoneal
Mark satisfied for Activity under 10 s, not satisfied if at or over.

compound=NCC1(CC(=O)O)CCCCC1 tested_target="Rattus norvegicus" answer_label=satisfied
compound=O=C(O)CCCNC(=O)N/N=C/c1cccc([N+](=O)[O-])c1 tested_target="Rattus norvegicus" answer_label="not satisfied"
compound=O=C(O)CCCNC(=O)NN=C(Cc1ccccc1)Cc1ccccc1 tested_target="Rattus norvegicus" answer_label=satisfied
compound=Nc1nnc(-c2cccc(Cl)c2Cl)c(N)n1 tested_target="Rattus norvegicus" answer_label="not satisfied"
compound=O=C(O)CCCNC(=O)N/N=C/c1ccccc1O tested_target="Rattus norvegicus" answer_label="not satisfied"
compound="NC(=O)N1c2ccccc2C=Cc2ccccc21 [CARBAMAZEPINE]" tested_target="Rattus norvegicus" answer_label="not satisfied"
compound=CN(C)c1ccc(/C=N/NC(=O)NCCCC(=O)O)cc1 tested_target="Rattus norvegicus" answer_label="not satisfied"
